System: SK-OV-3
Assay: Antiproliferative activity against human SKOV3 cells as reduction in cell growth measured after 96 hrs by Celltiter-glo luminescent assay
Assay type: functional, cell-based
Conditions: SK-OV-3, 96 h
measured-quantity: IC50 (µM)
The answer is to be given in µM; state only the numeric part.

# count of solved cases: 4
>  <compound>
O=C(c1ccc(Sc2ccccc2)cc1)C1CCN(C(=O)c2cc(O)c(F)cc2F)CC1

>  <IC50 / µM>
11

$$$$
>  <compound>
O=C(c1ccc(Sc2ccccc2)cc1)C1CCN(C(=O)c2cc(O)ccc2F)CC1

>  <IC50 / µM>
4.6

$$$$
>  <compound>
COc1nn(-c2ccc(NC(=O)OCc3ccccc3)c(C)c2)c(=O)o1

>  <IC50 / µM>
33

$$$$
>  <compound>
O=C(c1ccc(Cc2ccccc2)cc1)C1CCN(C(=O)c2cc(O)c(F)cc2F)CC1

>  <IC50 / µM>
12

$$$$

Challenge: Report IC50 for O=C(c1ccc(Cc2ccccc2)cc1)C1CCN(C(=O)c2cc(O)ccc2F)CC1 please.
Response given: 8
